// data source = patent EP0118571A1

Target: rat lens AR (RLAR) (Rattus norvegicus, UniProt P07943)
Construct: BLAR and RLAR were purified according to the method of Inagaki et al; from tissue; host or cells: rat (Wistar) lens
Test: Aldose reductase (AR) activity assay, rat lens AR (NADPH oxidation, DL-glyceraldehyde substrate)
Assay type: biochemical
Details: inhibitor 10^-7M; 30°C, pH 6.2, 1 % propylene glycol; read-out: Inhibition against enzyme activity (%) RLAR 10^-7M
Please respond with reported inhibition at 0.1 µM for every item in the list.
Just the number in %, nothing appended.

Reported rat lens AR (RLAR) (Rattus norvegicus, UniProt P07943) inhibition at 0.1 µM for item COc1cc(-c2cc(=O)c3c(O)c(OC)c(OC)c(OC)c3o2)ccc1O [Ref-2] was 0

Measured on rat lens AR (RLAR) (Rattus norvegicus, UniProt P07943), COc1c(OC)c(OC)c2c(=O)cc(-c3ccc(O)c(O)c3)oc2c1OC [LARI] has a documented inhibition at 0.1 µM of 78

The molecule C[C@@H]1O[C@@H](Oc2c(-c3ccc(O)c(O)c3)oc3cc(O)cc(O)c3c2=O)[C@H](O)[C@H](O)[C@H]1O [quercitrin] , when measured on rat lens AR (RLAR) (Rattus norvegicus, UniProt P07943), yielded inhibition at 0.1 µM of 38

Form field, inhibition at 0.1 µM with rat lens AR (RLAR) (Rattus norvegicus, UniProt P07943), item COc1cc(-c2cc(=O)c3c(OC)c(O)c(OC)c(OC)c3o2)ccc1O [Ref-1] : 6

====

Target: bovine lens AR (BLAR) (Bos taurus, UniProt P16116)
Construct: BLAR and RLAR were purified according to the method of Inagaki et al; from tissue; host or cells: bovine lens
Assay: Aldose reductase (AR) activity assay, bovine lens AR (NADPH oxidation, DL-glyceraldehyde substrate)
Assay type: biochemical
Conditions: read-out: IC50 (concentration of inhibitor needed to elicit 50 % inhibition) BLAR
Description: The inhibitory activitiy against AR of LARI was determined according to the following method. […] AR assays were conducted according to the procedure of Hayman and Kinoshita (J. Biol. Chem. 240, p. 877 (1965)), except for the addition of ammonium sulfate instead of lithium sulfate to the reaction mixture. […] The effects of inhibitors on the enzyme activity were determined in the reaction mixture containing 10 µl. of each inhibitor solution at the desired concentration. […]
OBSERVATION_TYPE: IC50 (µM)
# value in µM; strip the unit string

Summary for this compound, COc1c(OC)c(OC)c2c(=O)cc(-c3ccc(O)c(O)c3)oc2c1OC [LARI] : IC50 is 0.18

Looking up C[C@@H]1O[C@@H](Oc2c(-c3ccc(O)c(O)c3)oc3cc(O)cc(O)c3c2=O)[C@H](O)[C@H](O)[C@H]1O [quercitrin] , I found its IC50 recorded as 3.3

====

Hi there, I'd appreciate the recorded inhibition at 0.1 µM for every entry that follows.
Molecular target: bovine lens AR (BLAR) (Bos taurus, UniProt P16116)
Construct: BLAR and RLAR were purified according to the method of Inagaki et al; from tissue; host or cells: bovine lens
Test: Aldose reductase (AR) activity assay, bovine lens AR (NADPH oxidation, DL-glyceraldehyde substrate)
Type: biochemical
Conditions: inhibitor 10^-7M; 30°C, pH 6.2, 1 % propylene glycol; read-out: Inhibition against enzyme activity (%) BLAR 10^-7M
Kindly provide the numeric value in % only, without the unit symbol.

The recorded inhibition at 0.1 µM for "COc1c(OC)c(OC)c2c(=O)cc(-c3ccc(O)c(O)c3)oc2c1OC" is 37

Record "COc1cc(-c2cc(=O)c3c(O)c(OC)c(OC)c(OC)c3o2)ccc1O" . Reported inhibition at 0.1 µM: 0

Reported inhibition at 0.1 µM ( "C[C@@H]1O[C@@H](Oc2c(-c3ccc(O)c(O)c3)oc3cc(O)cc(O)c3c2=O)[C@H](O)[C@H](O)[C@H]1O" ) = 0

inhibition at 0.1 µM in this record for "COc1cc(-c2cc(=O)c3c(OC)c(O)c(OC)c(OC)c3o2)ccc1O" : 0
